The following molecules are shown together with reported normalized growth values.
Method Notes: chemical genetic growth profiling, strain panel (AID 1159580);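 also: tested at 20 µM; growth read once vehicle control cultures reached saturation at 30 °C; 1 = growth at the plate median or of vehicle wells; lower values mean less growth of the strain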
Condition Info: S. cerevisiae deletion strains, growth OD, locus YKL190W, strain CNB1, hits give low values
About 2,000 (36%) of roughly 5,500 compounds were called active. Not shown: some 18% with an inconclusive outcome. The list shows a part of the results.
API note: the answer field is a bare number with no unit suffix.

Please review the entries below; each comes with its answer.
[[record]]
molecule = "CCC(=O)Nc1cc(F)ccc1C"
endpoint = "normalized growth"
observed_value = 1.01

[[record]]
molecule = "Cc1cccc(Cn2c(C)c(C)c(S(=O)(=O)c3ccccc3)c2N)c1C"
endpoint = "normalized growth"
observed_value = 0.987

[[record]]
molecule = "CO[C@H]1[C@H](O)[C@H](O[C@H]2CC[C@]3(C)C4CC[C@]5(C)C(C6=CC(=O)OC6)CC[C@]5(O)C4CC[C@@H]3C2)O[C@@H](C)[C@@H]1O (stereo not given in full)"
endpoint = "normalized growth"
observed_value = 1.01

[[record]]
molecule = "O=C1C=CC(=C(c2ccc(O)cc2)c2ccc(O)cc2)C=C1"
endpoint = "normalized growth"
observed_value = 0.994


In the following, a different molecule is considered.
Look at this molecule and give its reported normalized growth. "CN(C)c1ccc(C(=O)NN)cc1"
1.01

Origin of the recorded values: PubChem BioAssay AID1159580
